B1: glmS ribozyme (parent)
chain: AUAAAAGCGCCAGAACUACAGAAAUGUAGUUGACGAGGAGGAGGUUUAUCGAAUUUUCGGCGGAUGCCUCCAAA

- Variants of: B1
- assay_name: self-cleavage kobs at 640 uM GlcN6P; higher = faster cleavage; RNA array
- conditions_used: with glucosamine-6-phosphate
This sample holds only a part of the variants without activity.
value_type: self-cleavage kobs at 640 uM GlcN6P

These solved cases illustrate the format of a correct answer.
- variant_spec: "C10A U54G C71G"
  result: "0.000112 s⁻¹"
- variant_spec: "U47G A52U C68G"
  result: "0.000113 s⁻¹"
- variant_spec: "C10G U30C C68G"
  result: "9.65e-05 s⁻¹"
- variant_spec: "G37A G43U G62U G66C C67A"
  result: "< 1e-05 s⁻¹"
- variant_spec: "A42C U46G U49A"
  result: "< 1e-05 s⁻¹"

In the following, a different variant is considered.
[in] Please give the measured self-cleavage kobs at 640 uM GlcN6P for this variant: U30A A48G
[out] < 1e-05 s⁻¹
